testSystem: NRAS G12C (Homo sapiens, UniProt P01111+P62937, G12C)
Sequence (P01111 whole entry G12C): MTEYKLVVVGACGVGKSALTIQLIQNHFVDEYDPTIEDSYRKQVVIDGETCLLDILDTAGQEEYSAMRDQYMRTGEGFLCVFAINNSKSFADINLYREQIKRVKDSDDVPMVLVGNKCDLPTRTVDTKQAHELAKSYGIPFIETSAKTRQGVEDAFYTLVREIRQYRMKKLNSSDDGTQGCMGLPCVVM
Sequence (P62937 whole entry): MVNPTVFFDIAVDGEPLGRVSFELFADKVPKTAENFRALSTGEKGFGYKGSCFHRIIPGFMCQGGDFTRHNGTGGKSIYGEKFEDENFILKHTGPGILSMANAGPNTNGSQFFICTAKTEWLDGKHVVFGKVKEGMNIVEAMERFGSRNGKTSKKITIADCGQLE
procedureSummary: Disruption of BRAF RBD interaction with Ras (FRET / MOA assay, with Cyclophilin A)
Type: biochemical
measurementSetup: NRAS G12C; read-out: NRAS G12C FRET data IC50
outcomeMeasure: IC50

[[record]]
compound = "CCn1c(-c2cccnc2[C@H](C)OC)c2c3cc(ccc31)-c1csc(n1)C[C@H](NC(=O)[C@H](C(C)C)N(C)C(=O)N1CCC[C@@H](N(C)C)C1)C(=O)N1CCC[C@H](N1)C(=O)OCC(C)(C)C2 (atropisomer, axis not shown) [Example A531]"
testsystem = "NRAS G12C (Homo sapiens, UniProt P01111+P62937, G12C)"
measuredresult = "10 to 100 nM"


(Q) Data request, read-out IC50, for CCn1c(-c2cccnc2[C@H](C)OC)c2c3cc(ccc31)-c1csc(n1)C[C@H](NC(=O)[C@H](C(C)C)N(C)C(=O)N1CCN(C)CC1)C(=O)N1CCC[C@H](N1)C(=O)OCC(C)(C)C2 [Example A570]
(A) 100 to 1000 nM

(Q) Request: C=CC(=O)N1CC[C@]2(COCCN2C(=O)N(C)[C@H](C(=O)N[C@H]2Cc3nc(cs3)-c3ccc4c(c3)c(c(-c3cccnc3[C@H](C)OC)n4CC)CC(C)(C)COC(=O)[C@@H]3CCCN(N3)C2=O)C(C)C)C1 (atropisomer, axis not shown) [Example A677]
(A) 100 to 1000 nM

(Q) Request: CCn1c(-c2cc(N3CCN(C)CC3)cnc2[C@H](C)OC)c2c3cc(ccc31)-c1csc(n1)C[C@H](NC(C)=O)C(=O)N1CCC[C@H](N1)C(=O)OCC(C)(C)C2 (atropisomer, axis not shown) [Example A340]
(A) > 10000 nM
